# Test system: HOP-92
# assayComment: NCI tumour cell line growth inhibition, 48 h
Active and inactive are the calls of the source. No stated cut-off is given here; in the data, active = GI50 up to about 1.1 µM and inactive = higher.
Respond with a class label; see 1 (yes) (active), 0 (no) (inactive)

{"compound": "CC(=O)OC1OC2C(NC(=O)OC(C)(C)C)C1CC2(OCc1ccccc1)OCc1ccccc1 (centres undefined)", "cat": "0 (no)"}
{"compound": "O=C(NC1C2CC3CC(C2)CC1C3)/C(Cl)=C1/Sc2ccccc2NC1=O (centres undefined)", "cat": "0 (no)"}
{"compound": "CC(=O)NC(CSC1=C2NC(=O)\\C=C/C=C\\C=C/C(C)C(O)CC(=O)/C(C)=C\\CC(O)/C=C\\C(C)C(O)C(C)C=C(C)C(=O)c3c(O)c(C)cc(c3C1=O)C2=O)C(=O)O (centres undefined)", "cat": "0 (no)"}

Proceed to the following item.
Task: # fetch the recorded call for COc1ccc(CCNC(=S)NC=C2C(=O)c3ccccc3C2=O)cc1OC here
Result: 1 (yes)

###

# System: XF498
# assayComment: NCI tumour cell line growth inhibition, 48 h
The source made the active and inactive calls. Rule as the data show it: active = GI50 up to about 1.1 µM and inactive = higher.
readoutName: GI50

{"molecule": "O=c1nc(NC(c2ccccc2)(c2ccccc2)c2ccccc2)ccn1CCNCCn1ccc(NC(c2ccccc2)(c2ccccc2)c2ccccc2)nc1=O", "systemUnderTest": "XF498", "GI50": "4.11 µM (inactive)"}
{"molecule": "Cc1n[nH]c(=S)n(C)c1=S", "systemUnderTest": "XF498", "GI50": "> 100 µM (inactive)"}
{"molecule": "CN(C)C(=S)/N=c1\\ssc(=S)n1Cc1ccncc1", "systemUnderTest": "XF498", "GI50": "5.66 µM (inactive)"}
{"molecule": "CCO[C@@H]1C2C=CC(C2)[C@H]1[N+](=O)[O-] (stereo not given in full)", "systemUnderTest": "XF498", "GI50": "> 100 µM (inactive)"}

Could you now look at the following molecule, please?
Task: Enter reported GI50 observed with XF498 for CS(=O)(=O)N(CCC#N)c1ccc(/C=C2\N=C(c3ccccc3Cl)OC2=O)cc1
Result: > 100 µM (inactive)

###

# Test system: KM12
# assayComment: NCI tumour cell line growth inhibition, 48 h
Calls of active or inactive are those of the source. No stated cut-off is given here; in the data, active = GI50 up to about 1.1 µM and inactive = higher.
readoutName: GI50

Completed entries (count: 5):
{"molecule": "CCCCCCN(CCCCCC)CCC(=O)c1ccc2cc(Br)c3ccccc3c2c1", "GI50": "11.5 µM (inactive)"}
{"molecule": "Oc1ccc(Br)cc1/C=N/C1CCCCC1", "GI50": "29.8 µM (inactive)"}
{"molecule": "CC(OCc1ccccc1)C(NC(=O)C1CSSCC(NC(=O)C(Cc2ccccc2)NC(=O)OCc2ccccc2)C(=O)NC(Cc2ccccc2)C(=O)NC(Cc2cn(C=O)c3ccccc23)C(=O)NC(CCCCNC(=O)OCc2ccccc2)C(=O)NC(C(C)OCc2ccccc2)C(=O)N1)C(N)=O (centres undefined)", "GI50": "3.91 µM (inactive)"}
{"molecule": "COc1c(-c2ccc3c(c2)OCO3)oc2cc(O)cc(O)c2c1=O", "GI50": "64.7 µM (inactive)"}
{"molecule": "CC(C)=NN/C(=N\\c1ccc(Cl)cc1)NS(=O)(=O)c1ccc(Oc2cccc(Cl)c2C#N)cc1", "GI50": "> 100 µM (inactive)"}

Task: Return reported GI50; argument: OC1OCC(COc2cc(Cl)c(Cl)cc2Cl)OC1O (centres undefined)
Result: 35.6 µM (inactive)

Task: Return reported GI50; argument: NCCCC[C@H](N)C(=O)Nc1ccc(-c2nc3ccccc3s2)cc1
Result: 18.5 µM (inactive)

Task: Return reported GI50; argument: COc1ccc2nc3ccccc3c(NCCN(C)CCCl)c2c1
Result: 0.807 µM (active)

Task: Return reported GI50; argument: C[Si](C)(C)C1=C([Si](C)(C)C)C(Cl)(Cl)C1=O
Result: 6.17 µM (inactive)

###

Each entry below lists one item and its recorded GI50 value.
# Tested on: SNB-75
# assayComment: NCI tumour cell line growth inhibition, 48 h
Activity calls are given as the source filed them. No stated cut-off is given here; in the data, active = GI50 up to about 1.1 µM and inactive = higher.

{"molecule": "COC(CNC(=O)C(C)NC(=O)CCc1ccccc1)OC (stereo unspecified)", "GI50": "> 100 µM (inactive)"}
{"molecule": "CC1=C(C)C(=O)OC(C(C)(O)C2(O)CCC3(O)C4CC(Cl)C5(O)C(O)C=CC(=O)C5(C)C4CCC32C)C1 (stereo unspecified)", "GI50": "4.25 µM (inactive)"}
{"molecule": "O=c1c2cc3ccccc3n2c(=O)c2cc3ccccc3n12", "GI50": "> 100 µM (inactive)"}
{"molecule": "CC1=C(c2nc3ccccc3s2)C(=O)OC1(C)C", "GI50": "86.5 µM (inactive)"}

Could you now look at the following molecule, please?
Task: Return reported GI50; argument: O=C(c1ccccc1)C1(Br)S(=O)(=O)OCCOS1(=O)=O
Result: > 100 µM (inactive)

###

# System: HOP-92
# assayComment: NCI tumour cell line growth inhibition, 48 h
Calls of active or inactive are those of the source. Cut-off read from the data, not from the text of the source: active = GI50 up to about 1.1 µM and inactive = higher.
Respond with a class label; see active, inactive

Answered cases to consult:
{"compound": "Cc1ccc(/N=C2/S/C(=C3/CCC=C3N3CCOCC3)N(c3ccc(Cl)cc3)/C2=N/c2ccc(C)cc2)cc1", "cat": "inactive"}
{"compound": "CCOc1ccc(/N=N/S(=O)(=O)O)cc1", "cat": "inactive"}
{"compound": "CCCCCCCCCCNC(=O)CCC(NC(=O)c1ccc(N(C)Cc2cnc3nc(N)nc(N)c3n2)cc1)C(=O)NCCCCCCCCCC (stereo unspecified)", "cat": "inactive"}
{"compound": "O=C(O)C1=CN(c2ccncc2)C(c2ccco2)=CC1c1ccccc1[N+](=O)[O-] (stereo unspecified)", "cat": "inactive"}
{"compound": "O=S(=O)(/N=S(/Nc1ccccc1)C(Cl)Cl)c1ccccc1 (stereo unspecified)", "cat": "inactive"}

Task: # fetch the recorded call for COc1cc(/C=C2\CC3C4CC=C5C[C@@H](O)CC[C@]5(C)C4CC[C@]3(C)\C2=N\O)cc(OC)c1OC (stereo partly specified) here
Result: inactive

Task: # fetch the recorded call for Nc1ccn(C2OC(COP(=O)(O)Oc3ccccc3)C(O)C2O)c(=O)n1 (stereo unspecified) here
Result: inactive

###

# Tested on: DLD-1
# assayComment: NCI tumour cell line growth inhibition, 48 h
The source made the active and inactive calls. No stated cut-off is given here; in the data, active = GI50 up to about 1.1 µM and inactive = higher.
Respond with a class label; see active, inactive

{"compound": "CCN(CC)c1ccc(C(=C2C=CC(=[N+](CC)CC)C=C2)c2ccccc2)cc1", "cat": "active"}
{"compound": "CN(C)C(=S)/N=c1\\ss/c(=N\\c2ccccc2)n1-c1ccccc1", "cat": "inactive"}
{"compound": "CN(C)C(=S)/N=c1\\ssc(=S)n1Cc1ccncc1", "cat": "inactive"}
{"compound": "Cc1cc([N+](=O)[O-])ccc1Sc1c2ccccc2nc2cc(Cl)ccc12", "cat": "inactive"}
{"compound": "Nc1ccc(C(=O)N/C(=C\\c2ccc3c(c2)OCO3)c2nc3ccccc3s2)cc1", "cat": "inactive"}
{"compound": "COc1ccc(OCC(=O)O)c2c1CCC(C(C)C)C2=O (stereo not given)", "cat": "inactive"}
{"compound": "CC1=C(C(=O)CC(=O)C(=O)Nc2ccccc2C)Sc2ccccc2N1", "cat": "inactive"}
{"compound": "CCO/C([O-])=C(\\C(=O)c1ccc([N+](=O)[O-])cc1)[n+]1c(C)n(C)c2ccccc21", "cat": "inactive"}
{"compound": "NC1=NN(c2ccccc2)C(=O)C1/C(=N\\NC(=O)c1cc2ccccc2cc1O)C(=O)Nc1ccc(Cl)cc1 (stereo not given)", "cat": "inactive"}

Proceed to the following item.
Task: # fetch the recorded call for CCOc1ccc2c(c1)[n+]([O-])c(-c1ccc(Cl)cc1)c(N)[n+]2[O-] here
Result: inactive

###

# System: MOLT-4
# assayComment: NCI tumour cell line growth inhibition, 48 h
Calls of active or inactive are those of the source. Rule as the data show it: active = GI50 up to about 1.1 µM and inactive = higher.
Respond with a class label; see class 1 (active), class 0 (inactive)

Answered cases to consult:
{"compound": "COc1cc(C/N=c2/nc(N(C)C)ss2)cc(OC)c1OC", "cat": "class 0"}
{"compound": "Oc1cc(-c2cccc(OC(F)(F)F)c2)nc2ccc(N3CCCC3)cc12", "cat": "class 1"}
{"compound": "CN(c1ccccc1Cl)S(=O)(=O)c1ccc([N+](=O)[O-])cc1", "cat": "class 0"}

Task: # fetch the recorded call for COc1nc2c(c(=O)n1C)N[C@H]1[C@H](OC(C)=O)[C@@H](OC(C)=O)CO[C@H]1N2 here
Result: class 0

Task: # fetch the recorded call for COC12C=CC(CC1)C(C)(C)C2OS(C)(=O)=O (centres undefined) here
Result: class 0

Task: # fetch the recorded call for C=CC(OC(C)=O)c1ccc(OC(C)=O)cc1 (centres undefined) here
Result: class 0

Task: # fetch the recorded call for N#CCCN(CCC#N)c1ccc(/C=N\c2ccc(F)cc2)cc1 here
Result: class 0

Task: # fetch the recorded call for CC[C@H]1C=CCC[C@@]2(C[C@@H]3CC[C@@H]4[C@H](C(=O)OCCCCCCCCCCCCCCCC(=O)N(CCCN)C[C@@H](O)CCN)[C@]5(CCC[C@@H](C)O5)NC(=[N+]34)N2)O1 here
Result: class 1

Task: # fetch the recorded call for O=P(c1ccccc1)(c1ccccc1)C1CC=C2CCCCCC2C1 (centres undefined) here
Result: class 0

Task: # fetch the recorded call for CCOC(=O)c1cnc2[nH]ccn2c1=O here
Result: class 0

Task: # fetch the recorded call for CCOC(=O)/C(C)=C\[C@@]1(C)O[C@@H](C)[C@@](C)(OC(C)=O)[C@@H]1OC(C)=O here
Result: class 0

Task: # fetch the recorded call for c1ccc(CNc2c3c(nc4ccccc24)CCC3)cc1 here
Result: class 0

Task: # fetch the recorded call for CC(=O)OC1C2CCC3CC2C2(SCCS2)C31 (centres undefined) here
Result: class 0

Task: # fetch the recorded call for NNC(=O)CCC(=O)NC1C2CC3CC(C2)CC1C3 (centres undefined) here
Result: class 0

Task: # fetch the recorded call for CCN(CC)CCn1c(=O)c2c(C)c3oc4ccccc4oc3c(C)c2c1=O here
Result: class 0

Task: # fetch the recorded call for O=C(O)CSc1nnc(-c2ccc(O)cc2)[nH]1 here
Result: class 0

Task: # fetch the recorded call for Cc1ccc2oc3c(c(Br)c(Br)n3C)c(=O)c2c1 here
Result: class 0

Task: # fetch the recorded call for COc1nc(C(Cl)(Cl)Cl)c(Cl)c(O)c1Cl here
Result: class 0

Task: # fetch the recorded call for Cc1cccc2c(N)c3cccc(C(=O)NCCCNCCN)c3nc12 here
Result: class 1

Task: # fetch the recorded call for CCSC1=N/C(=C\c2ccco2)C(=O)N1 here
Result: class 0

Task: # fetch the recorded call for CN(C)CCCn1c2ccccc2c2cnccc21 here
Result: class 0
